# assay_target: Metabotropic glutamate receptor 1 (Homo sapiens, UniProt Q13255)
# Sequence (Q13255 whole entry): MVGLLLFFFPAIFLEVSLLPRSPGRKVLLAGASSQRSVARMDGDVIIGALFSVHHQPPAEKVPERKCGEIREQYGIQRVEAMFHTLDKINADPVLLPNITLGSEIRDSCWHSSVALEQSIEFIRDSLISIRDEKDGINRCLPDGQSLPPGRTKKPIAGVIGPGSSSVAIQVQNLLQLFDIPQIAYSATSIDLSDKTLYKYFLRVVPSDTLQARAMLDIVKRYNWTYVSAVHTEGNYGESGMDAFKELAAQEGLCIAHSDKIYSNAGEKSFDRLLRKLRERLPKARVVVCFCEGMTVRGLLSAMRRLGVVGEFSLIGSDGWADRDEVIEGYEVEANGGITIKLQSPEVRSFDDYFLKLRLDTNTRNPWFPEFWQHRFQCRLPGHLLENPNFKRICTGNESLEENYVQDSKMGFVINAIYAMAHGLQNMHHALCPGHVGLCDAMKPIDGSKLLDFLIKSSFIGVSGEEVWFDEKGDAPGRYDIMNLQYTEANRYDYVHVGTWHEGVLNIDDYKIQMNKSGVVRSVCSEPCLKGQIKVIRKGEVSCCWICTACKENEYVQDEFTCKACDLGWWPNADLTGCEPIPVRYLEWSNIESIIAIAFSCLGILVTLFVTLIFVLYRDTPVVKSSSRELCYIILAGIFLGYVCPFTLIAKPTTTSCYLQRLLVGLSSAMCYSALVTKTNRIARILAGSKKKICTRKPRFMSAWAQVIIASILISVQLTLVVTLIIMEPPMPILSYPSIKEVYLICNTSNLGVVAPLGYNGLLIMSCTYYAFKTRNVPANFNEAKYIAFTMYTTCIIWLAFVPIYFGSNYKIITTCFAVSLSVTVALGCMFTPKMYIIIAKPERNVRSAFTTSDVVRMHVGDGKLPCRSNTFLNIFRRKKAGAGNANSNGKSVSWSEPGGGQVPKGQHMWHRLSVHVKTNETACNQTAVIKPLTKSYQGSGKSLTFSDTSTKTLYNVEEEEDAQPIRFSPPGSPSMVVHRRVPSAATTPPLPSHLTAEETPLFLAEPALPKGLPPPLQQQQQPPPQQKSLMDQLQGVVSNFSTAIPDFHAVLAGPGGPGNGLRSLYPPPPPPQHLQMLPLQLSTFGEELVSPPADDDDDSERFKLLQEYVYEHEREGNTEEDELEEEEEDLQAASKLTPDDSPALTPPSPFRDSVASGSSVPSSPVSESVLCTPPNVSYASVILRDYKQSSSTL
# assay_method_text: Antagonist activity at human mGluR1
Each record here notes measured IC50.
Please respond with the number in nM and leave the unit unwritten.

• C=CCNc1ccnc2sc3c(=O)n(-c4ccc(Br)cc4)cnc3c12 = 12.6
• C=CCN(C)c1ccnc2sc3c(=O)n(-c4ccc(OC)cc4)cnc3c12 = 6.9

Now turn to the next molecule.
[Q] I have this molecule here, C=C(C)CNc1ccnc2sc3c(=O)n(-c4ccc(OC)cc4)cnc3c12 , and I need its recorded IC50.
[A] 10.4

* * *

# assay_target: Metabotropic glutamate receptor 1 (Rattus norvegicus, UniProt P23385)
# Sequence (P23385 whole entry): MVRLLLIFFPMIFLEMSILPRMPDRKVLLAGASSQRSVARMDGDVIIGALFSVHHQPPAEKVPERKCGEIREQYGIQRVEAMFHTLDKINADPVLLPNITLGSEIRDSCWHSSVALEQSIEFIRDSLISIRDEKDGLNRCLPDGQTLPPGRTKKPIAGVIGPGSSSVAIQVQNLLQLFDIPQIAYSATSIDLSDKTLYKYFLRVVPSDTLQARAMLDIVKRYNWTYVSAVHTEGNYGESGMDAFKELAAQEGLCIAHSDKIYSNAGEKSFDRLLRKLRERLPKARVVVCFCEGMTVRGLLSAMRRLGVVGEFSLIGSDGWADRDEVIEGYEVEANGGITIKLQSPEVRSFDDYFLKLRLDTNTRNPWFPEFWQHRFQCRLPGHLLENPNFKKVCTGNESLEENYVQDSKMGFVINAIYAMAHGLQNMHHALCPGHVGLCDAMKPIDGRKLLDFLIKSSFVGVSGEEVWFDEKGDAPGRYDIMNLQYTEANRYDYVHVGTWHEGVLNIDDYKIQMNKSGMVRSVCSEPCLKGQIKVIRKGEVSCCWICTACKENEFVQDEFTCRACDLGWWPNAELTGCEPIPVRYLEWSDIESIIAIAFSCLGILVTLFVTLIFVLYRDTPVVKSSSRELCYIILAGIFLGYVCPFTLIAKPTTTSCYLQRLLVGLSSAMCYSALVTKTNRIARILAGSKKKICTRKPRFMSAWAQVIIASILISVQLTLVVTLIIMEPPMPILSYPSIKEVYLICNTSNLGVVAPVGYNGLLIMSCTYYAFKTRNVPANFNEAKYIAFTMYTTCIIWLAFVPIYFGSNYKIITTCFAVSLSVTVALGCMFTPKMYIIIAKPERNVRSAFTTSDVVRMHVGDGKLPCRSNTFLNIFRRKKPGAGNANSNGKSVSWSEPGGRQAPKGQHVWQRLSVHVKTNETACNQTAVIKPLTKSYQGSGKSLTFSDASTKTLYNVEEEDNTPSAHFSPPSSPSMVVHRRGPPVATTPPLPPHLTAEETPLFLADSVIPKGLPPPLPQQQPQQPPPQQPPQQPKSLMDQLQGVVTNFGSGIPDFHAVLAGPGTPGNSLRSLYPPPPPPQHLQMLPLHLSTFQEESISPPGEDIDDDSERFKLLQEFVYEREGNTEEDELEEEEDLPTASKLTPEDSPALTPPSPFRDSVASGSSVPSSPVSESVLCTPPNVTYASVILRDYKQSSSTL
# assay_method_text: Antagonist activity at rat mGluR1
result_type: Ki (nM)
Please respond with the number in nM and leave the unit unwritten.

Solved cases (3 shown):
• C=C(C)CNc1ncnc2sc3c(=O)n(-c4ccc(OC)cc4)cnc3c12 = 7.5
• C#CCNc1ncnc2sc3c(=O)n(-c4ccc(C)cc4)cnc3c12 = 8.3
• C=C(C)CNc1ccnc2sc3c(=O)n(-c4ccc5c(c4)OCCO5)cnc3c12 = 13

Now turn to the next compound.
[Q] I have this compound here, C=CCNc1ccnc2sc3c(=O)n(-c4ccc(F)cc4)cnc3c12 , and I need its recorded Ki.
[A] 7.7

* * *

# assay_target: Metabotropic glutamate receptor 1 (Homo sapiens)
# assay_method_text: Antagonist activity at human mGluR1
Classify: Fulfilled when IC50 is strictly less than 8 nM; Not fulfilled when IC50 is not.

Example cases with answers are listed next.
- C=C(C)CNc1ncnc2sc3c(=O)n(-c4ccc5scnc5c4)cnc3c12: Not fulfilled
- C#CCNc1ncnc2sc3c(=O)n(-c4ccc(Cl)cc4)cnc3c12: Fulfilled
- C=CCNc1ccnc2sc3c(=O)n(-c4ccc(OC)cc4)cnc3c12: Fulfilled
- C=CCNc1ccnc2sc3c(=O)n(-c4ccc(F)cc4)cnc3c12: Fulfilled
- C#CCNc1ncnc2sc3c(=O)n(-c4ccc(OC)c(F)c4)cnc3c12: Not fulfilled

[Q] In the record for C#CCNc1ncnc2sc3c(=O)n(-c4ccc5sccc5c4)cnc3c12 , is IC50 less than 8 nM?
[A] Not fulfilled
